Origin of values: patent US9353082B2

Exercise: for every item that follows, state its recorded In Vivo BRh 3 mg/kg 8 h, remaining FAAH activity.
target.under.test: FAAH (Mus musculus)
Construct: A fragment of liver, left lung lobe and brain without cerebellum were removed; from tissue; host or cells: male NMRI mice; brain (without cerebellum) and liver homogenates
Sequence (O08914 whole entry, the tested form may be a part): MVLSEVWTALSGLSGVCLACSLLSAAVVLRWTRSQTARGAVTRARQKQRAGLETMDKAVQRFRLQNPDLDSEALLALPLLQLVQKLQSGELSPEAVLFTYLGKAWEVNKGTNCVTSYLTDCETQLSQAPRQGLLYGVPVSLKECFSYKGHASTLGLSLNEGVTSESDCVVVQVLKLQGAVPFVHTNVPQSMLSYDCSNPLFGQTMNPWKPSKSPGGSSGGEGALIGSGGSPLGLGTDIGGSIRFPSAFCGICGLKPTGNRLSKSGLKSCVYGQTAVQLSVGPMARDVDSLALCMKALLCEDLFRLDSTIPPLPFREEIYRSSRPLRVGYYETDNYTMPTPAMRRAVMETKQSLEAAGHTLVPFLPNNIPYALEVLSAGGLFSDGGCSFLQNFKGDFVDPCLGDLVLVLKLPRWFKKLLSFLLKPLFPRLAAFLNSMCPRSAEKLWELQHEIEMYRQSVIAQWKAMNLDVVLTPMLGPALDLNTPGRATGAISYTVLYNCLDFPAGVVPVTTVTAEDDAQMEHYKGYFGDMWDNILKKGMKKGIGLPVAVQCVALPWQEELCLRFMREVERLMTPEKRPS
method: In vivo FAAH inhibition after oral dosing, remaining activity in brain homogenate (BRh, central nervous tissue)
Set-up: species or system NMRI mice
condition.label: brain homogenate, 3 mg/kg, 8 h

**Query** Suppose we examine the molecule `C[C@@H]1CCC[C@H](C)N1C(=O)n1cnc(-c2ccccc2)c1` ; what In Vivo BRh 3 mg/kg 8 h, remaining FAAH activity value has been reported?
**Result** 104.5 % of control

**Query** Try `CN(C(=O)n1cnc(-c2cccc(-c3ccccc3)c2)c1)C1CCCCC1` next.
**Result** 16.4 % of control

**Query** Try `C[C@@H](c1ccccc1)N(C)C(=O)n1nnc2ccccc21` next.
**Result** 9.1 % of control

**Query** Try `O=C(N1CCS(=O)(=O)C1)n1nnc2ccccc21` next.
**Result** 99.9 % of control

**Query** Try `O=C(N1CCN(c2ccccc2)CC1)n1cnc(-c2cccc(-c3ccccc3)c2)c1` next.
**Result** 88.1 % of control

**Query** Try `CC1(C)COCN1C(=O)n1cnc(-c2cccc(Oc3ccc(C(N)=O)cc3)c2)n1` next.
**Result** 99.8 % of control

**Query** Try `CC1(C)COCN1C(=O)n1cnc(-c2cccs2)n1` next.
**Result** 53.7 % of control

**Query** Try `CN(C(=O)n1nnc2ccccc21)C1CCC2(CC1)OCC(C)(C)CO2` next.
**Result** 0.4 % of control

**Query** Try `CN(CCCCCc1ccccc1)C(=O)n1nnc2ccccc21` next.
**Result** 2.5 % of control

**Query** Try `O=C(NC12CC3CC(CC(C3)C1)C2)n1nnc2ccccc21` next.
**Result** 0.2 % of control
